A collection of sequences and their measured protein stability index
- System: Saccharomyces cerevisiae
- Experimental details: protein stability index of tFT-peptide fusion in deletion strain of DOA10 (PSI (0-1 scale)); higher = more stable (slower turnover)

| Entry sequence | Measured on | protein stability index |
| --- | --- | --- |
| RGLRVLLPLYFR | Saccharomyces cerevisiae | 0.673 |
| RSLSVLLPLYFR | Saccharomyces cerevisiae | 0.682 |
| GLYRCSVGCWFR | Saccharomyces cerevisiae | 0.67 |
| RSLRVLLPLNFR | Saccharomyces cerevisiae | 0.671 |
| RVTRLDTIYFRI | Saccharomyces cerevisiae | 0.69 |
| RSLRVLLPLYQR | Saccharomyces cerevisiae | 0.659 |
| RVTRLDAEYFRI | Saccharomyces cerevisiae | 0.693 |
| RSLRVCLPLYFR | Saccharomyces cerevisiae | 0.671 |
| LITLPMCPLLLR | Saccharomyces cerevisiae | 0.626 |
| RVTRLDAIIFRI | Saccharomyces cerevisiae | 0.703 |
| RGTRLDAIYFRI | Saccharomyces cerevisiae | 0.684 |
| RTTRLDAIYFRI | Saccharomyces cerevisiae | 0.658 |
| YITLPMCPLLLR | Saccharomyces cerevisiae | 0.616 |
| GLYNCSVGCWFR | Saccharomyces cerevisiae | 0.674 |
| RSLRVVLPLYFR | Saccharomyces cerevisiae | 0.679 |
| RVTRLDAIYGRI | Saccharomyces cerevisiae | 0.724 |
| RSHRVLLPLYFR | Saccharomyces cerevisiae | 0.651 |

###

- Tested on: Saccharomyces cerevisiae
- Experimental details: protein stability index of tFT-peptide fusion in deletion strain of DOA10 (PSI (0-1 scale)); higher = more stable (slower turnover)
Below is a list of entries, each paired with its recorded protein stability index value.
Result type: protein stability index

| Entry sequence | Endpoint value |
| --- | --- |
| RVTRLDAIYFGI | 0.721 |
| RVTRDDAIYFRI | 0.684 |
| RSLQVLLPLYFR | 0.675 |
| GLYMCSVVCWFR | 0.314 |
| RSLRVLLPFYFR | 0.668 |
| RYTRLDAIYFRI | 0.673 |
| GLYMCSWGCWFR | 0.665 |
| RVTRADAIYFRI | 0.684 |
| GVYMCSVGCWFR | 0.622 |
| RSLRGLLPLYFR | 0.696 |
| RVTRLDAFYFRI | 0.713 |
| GLYMCSVGTWFR | 0.668 |
| NVTRLDAIYFRI | 0.711 |
| RSLRVLLNLYFR | 0.659 |
| YLYMCSVGCWFR | 0.586 |
| RSLRVLLPLYFRM | 0.411 |
| GLYMCSVGVWFR | 0.453 |
| RVTRLDAIYFRID | 0.603 |
| RVTYLDAIYFRI | 0.563 |

###

- Test system: Saccharomyces cerevisiae
- Experimental details: protein stability index of tFT-peptide fusion in wild type (PSI (0-1 scale)); higher = more stable (slower turnover)
- Experimental context: genetic background: wild type
I would appreciate it if you labelled entries criterion met when protein stability index is 0.3 or higher, otherwise criterion not met.

| Entry sequence | Qualitative label |
| --- | --- |
| RSLRVLLPLYFRM | criterion not met |
| RVTRLDAIIFRI | criterion met |
| RSLQVLLPLYFR | criterion not met |
| RVTRLDATYFRI | criterion met |
| RVTRLDAEYFRI | criterion met |
| RVTRLDAFYFRI | criterion met |
| RSLNVLLPLYFR | criterion not met |
| RVTRLDAIYFRID | criterion met |
| RSLRVCLPLYFR | criterion not met |
| RSLRGLLPLYFR | criterion met |
| RSLRVLLPLPFR | criterion met |
| RSLRRLLPLYFR | criterion met |
| RSLRVLLPIYFR | criterion not met |
